Target: adenylate kinase (AK), wild-type (WT) (Escherichia coli, UniProt P69441)
Construct: gene adk; purified recombinant, details only in ESI
Sequence (P69441 whole entry): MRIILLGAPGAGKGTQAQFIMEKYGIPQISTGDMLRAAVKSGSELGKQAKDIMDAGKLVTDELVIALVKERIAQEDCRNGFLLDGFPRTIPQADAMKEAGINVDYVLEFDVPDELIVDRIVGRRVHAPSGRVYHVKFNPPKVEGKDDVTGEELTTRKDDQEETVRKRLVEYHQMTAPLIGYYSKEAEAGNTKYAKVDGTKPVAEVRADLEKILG
Test: microscale thermophoresis
Format: binding
Details: read-out: WT
Result type: pKd
Friendly reminder that pKd comes from taking -log10 of the concentration in mol/L.

Need pKd of Nc1ncnc2c1ncn2[C@@H]1O[C@H](COP(=O)(O)OP(=O)(O)OP(=O)(O)O)[C@@H](O)[C@H]1O , thanks. 3.80

---

Target: adenylate kinase (AK), wild-type (WT) (Escherichia coli)
Construct: gene adk; purified recombinant, details only in ESI
Assay: microscale thermophoresis
Type: binding
Conditions: read-out: Kd (AMP)
Result type: Kd
For clarity, give the value followed by its unit.

May I ask what Kd has been recorded for Nc1ncnc2c1ncn2[C@@H]1O[C@H](COP(=O)(O)O)[C@@H](O)[C@H]1O ? 332 µM
